- Assay Target: T1, recombinant human IL-33 (R&D Systems 3625-IL), reduced with DTT (human, UniProt O95760 112-270, limits assumed)
- T1 sequence (looked up): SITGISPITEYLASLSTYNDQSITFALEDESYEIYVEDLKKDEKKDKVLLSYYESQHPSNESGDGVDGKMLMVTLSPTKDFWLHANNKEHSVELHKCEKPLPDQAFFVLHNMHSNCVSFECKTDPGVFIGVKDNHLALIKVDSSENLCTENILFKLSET
- Experimental Details: cell-based or functional assay
Test Readout: IC50 [nM] versus reduced human IL-33 (R&D), IC50 (AVE) (nM)
Report only the number, with the unit nM understood.

IL33-0713 (antibody, IgG1, V domains shown) VH: EVQLVESGGGLVQPGGSLRLSCAASGFTFSSYWMYWVRQAPGKGLEWVAAITPNKGVDYYPESVKGRFTISRDNAKNSLYLQMNSLRAEDTAVYYCARGHYYYTSYSLGYWGQGTLVTVSS VL: DIQMTQSPSSLSASVGDRVTITCRASQPISKHLDWYQQKPGKAPKLLIYFTKNLVTGVPSRFSGSGSGTDFTLTISSLQPEDFATYYCFQYNQGWTFGGGTKVEIK = 0.012

## Input Which IC50 [nM] versus reduced human IL-33 (R&D), IC50 (AVE) is listed for IL33-0715 (antibody, IgG1, V domains shown) VH: EVQLVESGGGLVQPGGSLRLSCAASGFTFSSYWMYWVRQAPGKGLEWVAAITPNKGVDYYPESVKGRFTISRDNAKNSLYLQMNSLRAEDTAVYYCARGHYYYTSYSLGYWGQGTLVTVSS VL: DIQMTQSPSSLSASVGDRVTITCRASQPISKHLDWYQQKPGKAPKLLIYFTKNLQSGVPSRFSGSGSGTDFTLTISSLQPEDFATYYCFQYNQGWTFGGGTKVEIK ?
## Output 0.012

## Input Which IC50 [nM] versus reduced human IL-33 (R&D), IC50 (AVE) is listed for IL33-0714 (antibody, IgG1, V domains shown) VH: EVQLVESGGGLVQPGGSLRLSCAASGFTFSSYWMYWVRQAPGKGLEWVAAITPNKGVDYYPESVKGRFTISRDNAKNSLYLQMNSLRAEDTAVYYCARGHYYYTSYSLGYWGQGTLVTVSS VL: DIQMTQSPSSLSASVGDRVTITCRASQPISKHLDWYQQKPGKAPKLLIYFTKNLKTGVPSRFSGSGSGTDFTLTISSLQPEDFATYYCFQYNQGWTFGGGTKVEIK ?
## Output 0.009
